Hey, just so you know, these numbers are from ChEMBL document CHEMBL4513216.

tested on: Plasmodium berghei; experiment: Screen against P. berghei liver stage (PbLuc), transformed with Luciferase, at 10uM; assay type: functional, HepG2; settings: tested at 10 uM
The campaign covered roughly 69,000 compounds. About 8,600 (12%) showed an effect of 50% or more. The list comes from a sample in which strong results are over-represented; it also holds close analogues and randomly drawn compounds.
property-measured: INHIBITION (%)
Could you give me the number in %? Just the number is fine.

// known answers, use as guide
CN(Cc1ccon1)C(=O)C1CC(=O)N(Cc2cccnc2)C1 (stereo unspecified)    -49.3
CCC(NC(=O)CCCNC(=O)OC)c1cc(F)ccc1F (stereo unspecified)    -13.6

For CCN(CC1CCOCC1)C(=O)C1CC(=O)N(Cc2cccnc2)C1 (stereo unspecified) the compound record lists INHIBITION as 53.2

For Cc1ncc2c(n1)CN(CC(=O)Nc1nnc(C)s1)CC2 the compound record lists INHIBITION as 34.7

For CC(C)c1nc(CNC2CCN(C(=O)OC(C)(C)C)CC2)cs1 the compound record lists INHIBITION as 47
